# test-system: T1, VEGFR-3-Fc (UniProt P35916 25-328)
# T1 construct: domain: first three Ig domains; conditioned supernatant of 293T cells; also called VEGFR-3-Fc fusion protein; not shown: Fc fragment of the pIg vector
# T1 sequence (looked up): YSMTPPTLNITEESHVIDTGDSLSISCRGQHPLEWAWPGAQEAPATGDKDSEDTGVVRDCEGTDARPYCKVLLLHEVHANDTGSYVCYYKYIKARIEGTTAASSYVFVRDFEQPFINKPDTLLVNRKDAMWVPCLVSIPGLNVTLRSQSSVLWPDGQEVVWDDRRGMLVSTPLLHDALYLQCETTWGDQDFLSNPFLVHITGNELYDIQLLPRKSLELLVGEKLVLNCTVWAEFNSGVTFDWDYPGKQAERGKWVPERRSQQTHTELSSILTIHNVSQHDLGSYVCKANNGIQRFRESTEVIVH
# protocol-description: receptor-Fc IP
measurement-kind: binding result

[
  {
    "binder": "51-3 (ligand) AHYNTEILKSIDNEWRKTQCMPIETLVDIFQEYPDEIEYIFKPSCVPLMRCGGCCNSEGLQCVPTEESNITMQIMRIKPHQGQHIGEMSFLQHNKCECRPKKD",
    "endpoint-value": "no binding"
  },
  {
    "binder": "31-1 (ligand) GQNHHEVVKSIDNEWRKTQCMPIETLVDIFQEYPDEIEYIFKPSCVPLMRCGGCCNDEGLECVPTEESNITMQIMRIKPHQGQHIGEMSFLQHNKCECRPKKD",
    "endpoint-value": "no binding"
  }
]
